method: Efflux ratio of apparent permeability across basolateral to apical side to apical to basolateral side in MDCK-MDR1 cells at 75 uM incubated for 2 hrs by UV-spectroscopy
Type: ADME, cell-based, Canis lupus familiaris
experimentalParameters: dog
propertyMeasured: efflux ratio at 2 h, 75 µM
// no unit, no text: just the number

Item: CN1C(=O)CN=C(c2ccccc2)c2cc(Cl)ccc21 | efflux ratio at 2 h, 75 µM: 0.7

Item: COc1cc2cc(NC(=O)[C@H]3CCC[C@@H](NCc4ccccc4)C3)c(=O)oc2cc1OC (racemic) | efflux ratio at 2 h, 75 µM: 0.22

###

measurementTarget: UniProt P06276
Sequence (P06276 whole entry): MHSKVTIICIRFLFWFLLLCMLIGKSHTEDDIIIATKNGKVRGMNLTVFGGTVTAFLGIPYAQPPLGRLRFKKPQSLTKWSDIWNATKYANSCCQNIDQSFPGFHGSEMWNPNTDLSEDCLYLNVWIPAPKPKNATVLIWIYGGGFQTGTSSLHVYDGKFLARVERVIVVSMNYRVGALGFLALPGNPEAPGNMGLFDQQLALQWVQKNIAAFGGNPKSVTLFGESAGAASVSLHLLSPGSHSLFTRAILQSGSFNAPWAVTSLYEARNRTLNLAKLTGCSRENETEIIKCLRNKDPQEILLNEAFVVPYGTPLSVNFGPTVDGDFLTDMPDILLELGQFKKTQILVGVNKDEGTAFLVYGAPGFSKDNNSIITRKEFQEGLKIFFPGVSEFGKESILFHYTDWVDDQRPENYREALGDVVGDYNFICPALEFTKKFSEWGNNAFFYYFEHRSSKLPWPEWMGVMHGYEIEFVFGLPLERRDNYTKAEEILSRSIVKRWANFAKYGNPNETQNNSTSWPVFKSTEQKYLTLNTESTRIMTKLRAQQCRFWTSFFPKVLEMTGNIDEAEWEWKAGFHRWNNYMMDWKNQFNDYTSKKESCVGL
propertyMeasured: IC50 (µM)
I only need the number, in µM, no unit after it.

Illustrative cases are given below, each with its answer.
# compound, IC50 / µM
measured = [
    ("COc1cc2cc(NC(=O)[C@H]3CCC[C@@H](NCc4ccccc4)C3)c(=O)oc2cc1OC", 2.33),
    ("COc1cc2cc(NC(=O)[C@@H]3CCC[C@H](NCc4ccccc4)C3)c(=O)oc2cc1OC", 14.1),
    ("COc1cc2cc(NC(=O)CCCNCc3ccccc3)c(=O)oc2cc1OC", 0.181),
]

From here, focus on the item given below.
Item: COc1cc2cc(NC(=O)[C@H]3CCC[C@@H](NCc4ccccc4)C3)c(=O)oc2cc1OC (racemic) | IC50: 6.25

###

measurementTarget: Acetylcholinesterase (Homo sapiens, UniProt P22303)
Sequence (P22303 whole entry): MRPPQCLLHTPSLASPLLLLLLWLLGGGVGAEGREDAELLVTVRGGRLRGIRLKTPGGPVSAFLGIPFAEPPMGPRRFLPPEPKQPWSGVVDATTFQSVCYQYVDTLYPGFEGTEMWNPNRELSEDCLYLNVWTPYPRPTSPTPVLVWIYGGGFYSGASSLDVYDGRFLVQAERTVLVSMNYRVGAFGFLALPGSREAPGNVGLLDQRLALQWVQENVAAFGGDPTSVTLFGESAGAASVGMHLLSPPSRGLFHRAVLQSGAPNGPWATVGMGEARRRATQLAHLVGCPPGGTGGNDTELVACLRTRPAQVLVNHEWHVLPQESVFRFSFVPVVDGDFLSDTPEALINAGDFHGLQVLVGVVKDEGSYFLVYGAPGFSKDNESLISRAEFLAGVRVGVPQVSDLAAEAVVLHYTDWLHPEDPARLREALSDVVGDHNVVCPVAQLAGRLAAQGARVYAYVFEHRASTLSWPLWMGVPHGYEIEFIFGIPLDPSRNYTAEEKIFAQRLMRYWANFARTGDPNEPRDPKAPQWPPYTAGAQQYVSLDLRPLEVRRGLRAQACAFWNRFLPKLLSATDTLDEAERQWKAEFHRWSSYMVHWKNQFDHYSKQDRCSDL
API: label(entry) gives met if the entry's IC50 is strictly smaller than 0.4 µM; on equality or larger values it gives not met.

# molecule, labelValue
measured = [
    ("COc1cc2cc(NC(=O)CCCNCc3ccccc3)c(=O)oc2cc1OC", "not met"),
]

Asked: Please let me know if COc1cc2cc(NC(=O)[C@H]3CCC[C@@H](NCc4ccccc4)C3)c(=O)oc2cc1OC (racemic) shows IC50 below 0.4 µM.
Given back: met

Asked: Please let me know if COc1cc2cc(NC(=O)C3CCN(Cc4ccccc4)CC3)c(=O)oc2cc1OC shows IC50 below 0.4 µM.
Given back: met

Asked: Please let me know if COc1cc2cc(NC(=O)[C@H]3CCC[C@@H](NCc4ccccc4)C3)c(=O)oc2cc1OC shows IC50 below 0.4 µM.
Given back: met

Asked: Please let me know if COc1cc2cc(NC(=O)[C@@H]3CCC[C@H](NCc4ccccc4)C3)c(=O)oc2cc1OC shows IC50 below 0.4 µM.
Given back: met

###

Here's a batch of compounds along with measured Ki for Acetylcholinesterase (Homo sapiens).
I only need the number, in µM, no unit after it.

# compound, measurementUnit, recordedMeasurement
measured = [
    ("COc1cc2cc(NC(=O)[C@H]3CCC[C@@H](NCc4ccccc4)C3)c(=O)oc2cc1OC", "µM", 0.0934),
    ("COc1cc2cc(NC(=O)[C@@H]3CCC[C@H](NCc4ccccc4)C3)c(=O)oc2cc1OC", "µM", 0.0191),
]

Let me check: COc1cc2cc(NC(=O)[C@H]3CCC[C@@H](NCc4ccccc4)C3)c(=O)oc2cc1OC (racemic) , system Acetylcholinesterase (Homo sapiens), measured Ki is 0.0466

###

method: Apparent permeability across basolateral to apical side in MDCK-MDR1 cells at 75 uM incubated for 2 hrs by UV-spectroscopy
Assay type: ADME, cell-based, Canis lupus familiaris
experimentalParameters: dog
propertyMeasured: Papp B→A at 2 h, 75 µM (×10⁻⁶ cm/s)
I only need the number, in ×10⁻⁶ cm/s, no unit after it.

Item: COc1cc2cc(NC(=O)[C@H]3CCC[C@@H](NCc4ccccc4)C3)c(=O)oc2cc1OC (racemic) | Papp B→A at 2 h, 75 µM: 8.4

Hello, the source for this data is ChEMBL document CHEMBL4613305, in case you need it.
